testedOn: Human Factor D (Homo sapiens, UniProt P00746)
Construct: purified from human serum; purchased Complement Technology, Inc; host or cells: human serum (natural protein, not recombinant)
Sequence (P00746 26-253): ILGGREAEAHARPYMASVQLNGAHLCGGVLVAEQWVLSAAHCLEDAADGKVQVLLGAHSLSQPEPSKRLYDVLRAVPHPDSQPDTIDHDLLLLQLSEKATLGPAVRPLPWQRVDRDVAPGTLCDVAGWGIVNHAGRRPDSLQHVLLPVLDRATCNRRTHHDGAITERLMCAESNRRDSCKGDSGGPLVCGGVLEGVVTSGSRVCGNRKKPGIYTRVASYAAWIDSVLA
experiment: Human Factor D Assay
Assay type: biochemical
conditionSet: Table 3; Human Factor D 80 nM, substrate Z-L-Lys-SBzl; read-out: (IC50 (Stars))
pIC50: −log10 of the molar value.
Let's look at some compounds and their measured pIC50.
measurementLabel: pIC50

# compound, result
records = [
    ("CC(=O)c1cn(CC(=O)N2C[C@H](F)C[C@H]2CCNS(=O)(=O)c2ccccc2)c2ccc(OCP(=O)(O)O)cc12", "< 5.00"),
    ("CC(=O)c1cn(CC(=O)N2C[C@H](F)C[C@H]2C(=O)NCCc2ccccc2)c2ccc(OCS(N)(=O)=O)cc12", "5.00 to 6.00"),
    ("CC(=O)c1cn(CC(=O)N2C[C@H](F)C[C@H]2C(=O)NCCCCc2ccccc2)c2ccc(OCP(=O)(O)O)cc12", "< 5.00"),
    ("CCOP(=O)(COc1ccc2c(c1)c(C(C)=O)cn2CC(=O)N1C[C@H](F)C[C@H]1CCNS(=O)(=O)c1ccccc1)OCC", "5.00 to 6.00"),
    ("COc1cc(Br)nc(NC(=O)[C@@H]2C[C@@H](F)CN2C(=O)Cn2nc(C(C)=O)c3cc(Oc4ncc(C)cn4)ccc32)c1", "> 6.00"),
    ("CCOP(=O)(COc1ccc2c(c1)c(C(C)=O)cn2CC(=O)N1C[C@H](F)C[C@H]1C(=O)NCc1ccccc1)OCC", "> 6.00"),
    ("CCOP(=O)(COc1ccc2c(c1)c(C(C)=O)cn2CC(=O)N1C[C@H](F)C[C@H]1C(=O)NCCCc1ccccc1)OCC", "> 6.00"),
    ("CC(=O)c1cn(CC(=O)N2C[C@H](F)C[C@H]2C(=O)Nc2cccc(-c3ccccc3Cl)c2F)c2ccc(OCC[S+]([O-])CC3(C)COC3)cc12 (stereo partly shown)", "> 6.00"),
    ("CCOP(=O)(COc1ccc2c(c1)c(C(C)=O)cn2CC(=O)N1C[C@H](F)C[C@H]1C(=O)NCCc1ccccc1)OCC", "> 6.00"),
    ("CC(=O)c1cn(CC(=O)N2C[C@H](F)C[C@H]2C(=O)NCCCCc2ccccc2)c2ccc(OCS(N)(=O)=O)cc12", "5.00 to 6.00"),
    ("CC(=O)c1nn(CC(=O)N2[C@@H]3C[C@@H]3C[C@H]2C(=O)Nc2cncc(Br)n2)c2ccc(Oc3ncc(C)cn3)cc12", "> 6.00"),
    ("CC(=O)c1nn(CC(=O)N2C[C@H](F)C[C@H]2C(=O)Nc2ccc(F)c(Br)n2)c2ccc(Oc3ncc(C)cn3)cc12", "> 6.00"),
    ("CC(=O)c1nn(CC(=O)N2C[C@H](F)C[C@H]2C(=O)Nc2cncc(Br)n2)c2ccc(Oc3nccc(C)n3)cc12", "> 6.00"),
    ("CCOP(=O)(COc1ccc2c(c1)c(C(N)=O)cn2CC(=O)N1[C@@H]2CC[C@@H](C2)[C@H]1C(=O)Nc1cccc(C)n1)OCC", "< 5.00"),
    ("Cc1cccc(NC(=O)[C@@H]2[C@H]3CC[C@H](C3)N2C(=O)Cn2cc(C(N)=O)c3cc(OCS(N)(=O)=O)ccc32)n1", "< 5.00"),
    ("CC(=O)c1cn(CC(=O)N2C[C@H](F)C[C@H]2C(=O)NCCCc2ccccc2)c2ccc(OCP(=O)(O)O)cc12", "< 5.00"),
    ("CC(=O)c1nn(CC(=O)N2C[C@H](F)C[C@H]2C(=O)Nc2cccc(Br)n2)c2ccc(O[C@@H]3CO[C@H]4[C@@H]3OC[C@H]4O)cc12", "> 6.00"),
    ("CC(=O)c1cn(CC(=O)N2C[C@H](F)C[C@H]2C(=O)NCc2cccc(Cl)c2F)c2ccc(OCS(N)(=O)=O)cc12", "> 6.00"),
    ("CC(=O)c1nn(CC(=O)N2C[C@H](F)C[C@H]2C(=O)Nc2nc(Br)ccc2C)c2ccc(Oc3ncc(C)cn3)cc12", "> 6.00"),
    ("CC(=O)c1nn(CC(=O)N2C[C@H](F)C[C@H]2C(=O)Nc2ccc(F)c(Br)n2)c2ccc(Oc3cnc(C)cn3)cc12", "> 6.00"),
    ("CCOP(=O)(COc1ccc2c(c1)c(C(C)=O)cn2CC(=O)N1CC[C@H]1C(=O)Nc1cccc(C)n1)OCC", "< 5.00"),
    ("CC(=O)c1nn(CC(=O)N2[C@@H]3C[C@@H]3C[C@H]2C(=O)Nc2ccc(F)c(Br)n2)c2ccc(Oc3ncc(C)cn3)cc12", "> 6.00"),
    ("CC(=O)c1cn(CC(=O)N2C[C@H](F)C[C@H]2C(=O)NCCc2ccccc2)c2ccc(OCS(=O)(=O)NC(C)(C)C)cc12", "> 6.00"),
    ("CC(=O)c1cn(CC(=O)N2C[C@H](F)C[C@H]2C(=O)NCc2ccccc2)c2ccc(OCS(N)(=O)=O)cc12", "> 6.00"),
    ("CC(=O)c1cn(CC(=O)N2C[C@H](F)C[C@H]2C(=O)Nc2cccc(Br)n2)c2ccc(OCC[S+]([O-])CC3(C)COC3)cc12 (stereo partly shown)", "> 6.00"),
]
